Origin of measurements: paper PMC8704748

Target: UniProtKB Q01782
Sequence (Q01782 whole entry): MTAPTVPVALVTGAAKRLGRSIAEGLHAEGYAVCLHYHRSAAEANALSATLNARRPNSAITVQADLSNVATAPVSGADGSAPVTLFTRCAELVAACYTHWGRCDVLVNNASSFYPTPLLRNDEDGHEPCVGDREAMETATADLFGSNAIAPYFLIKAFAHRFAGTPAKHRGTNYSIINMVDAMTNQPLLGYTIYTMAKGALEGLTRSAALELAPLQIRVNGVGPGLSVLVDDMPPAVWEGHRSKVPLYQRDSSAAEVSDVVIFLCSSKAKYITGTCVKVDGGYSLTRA
Assay: LmPTR1 inhibition, Cytochrome C coupled spectrophotometric assay
Type: biochemical
Details: recombinant protein; standard errors within ± 10%
ATTRIBUTE_MEASURED: IC50 (µM)

Known IC50 results, listed for orientation:
COMPOUND: CC(c1ccc2c(c1)CCCC2)N(C)c1ncc2c(N)nc(N)nc2n1 (centres unmarked) [TCMDC-143296]
ATTRIBUTE_MEASURED: IC50
RESULT_NUMBER: 6.5
--
COMPOUND: COc1ccccc1-c1c(C)[nH]c2nc(N)nc(C)c12 [TCMDC-143610]
ATTRIBUTE_MEASURED: IC50
RESULT_NUMBER: 9.3
--
COMPOUND: COc1ccc(Oc2ccc(C(C)N(C)c3ncc4c(N)nc(N)nc4n3)cc2)cc1 (centres unmarked) [TCMDC-143295]
ATTRIBUTE_MEASURED: IC50
RESULT_NUMBER: 6.7
--
COMPOUND: N#Cc1cccc(Nc2nccc(N3CCC(NS(=O)(=O)c4cccc(C#N)c4)CC3)n2)c1 [TCMDC-143249]
ATTRIBUTE_MEASURED: IC50
RESULT_NUMBER: 6
--
COMPOUND: Cc1cc(N(C)C)nc2ccc(Cc3cnc(N)nc3N)cc12 [TCMDC-143611]
ATTRIBUTE_MEASURED: IC50
RESULT_NUMBER: 9.8

P = Cc1cc(-c2ccc3ccccc3c2)nc2nc(N)nc(N)c12 [TCMDC-143607]
Q = Cc1ccc2c(c1)-c1onc(C(=O)N3CCCC[C@H]3c3cccnc3)c1CO2 [TCMDC-143191]
Request: Which numeric IC50 is bigger, that of P or that of Q ? Refer to your chosen item by its label in the answer.
Response: Q
(Q: 38.5 µM, P: 8.1 µM)

A = CCN(Cc1nc2ccc(C(=O)N3CCN(c4ncccn4)CC3)cc2[nH]1)C1CCCc2cccnc21 (centres unmarked) [TCMDC-143518]
B = CC(c1cc(Cl)cc(Cl)c1)N(C)c1ncc2c(N)nc(N)nc2n1 (centres unmarked) [TCMDC-143297]
Request: Min IC50? A | B Lab log: write the label of the selected item as the result.
Response: B

* * *

Molecular target: TbDHFR-TS (Trypanosoma brucei brucei, UniProt Q27783)
Sequence (Q27783 whole entry): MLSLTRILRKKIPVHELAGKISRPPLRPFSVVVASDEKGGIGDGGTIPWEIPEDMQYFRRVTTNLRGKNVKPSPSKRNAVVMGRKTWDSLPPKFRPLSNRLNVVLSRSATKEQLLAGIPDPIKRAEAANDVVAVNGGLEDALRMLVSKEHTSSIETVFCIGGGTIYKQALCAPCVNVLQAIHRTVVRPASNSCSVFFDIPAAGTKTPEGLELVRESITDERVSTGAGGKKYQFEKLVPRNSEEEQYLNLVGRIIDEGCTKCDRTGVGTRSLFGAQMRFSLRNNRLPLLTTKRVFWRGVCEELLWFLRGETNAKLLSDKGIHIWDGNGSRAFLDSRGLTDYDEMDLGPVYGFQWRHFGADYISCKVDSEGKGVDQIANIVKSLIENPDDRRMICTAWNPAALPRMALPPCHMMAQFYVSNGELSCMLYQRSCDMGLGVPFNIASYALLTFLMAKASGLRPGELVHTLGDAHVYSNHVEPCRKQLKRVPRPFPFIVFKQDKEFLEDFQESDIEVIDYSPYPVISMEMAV
Assay: TbDHFR-TS inhibition, spectrophotometric DHF reduction assay (dose-response)
Settings: recombinant TbDHFR-TS; 40, 20 and 10 µM tested; standard errors within ± 10%
ATTRIBUTE_MEASURED: IC50

Some compounds with known IC50 results, for comparison:
COMPOUND: Cc1nc2c(-c3ncn[nH]3)cc(NC(=O)Cc3ccccc3)cn2c1C [TCMDC-143459]
RESULT: > 40 µM
//
COMPOUND: CN(Cc1cc2ccccc2s1)c1ncc2c(N)nc(N)nc2n1 [TCMDC-143232]
RESULT: > 40 µM

Request: Find the measured IC50 of CC(c1ccc2c(c1)CCCC2)N(C)c1ncc2c(N)nc(N)nc2n1 (stereo not shown) [TCMDC-143296] and report it.
Response: 9.7 µM

Request: Input CCCc1nc2nc(N)nc(N)c2cc1CC [TCMDC-143606] , output reported IC50.
Response: > 40 µM

* * *

Biological target: TbPTR1 (Trypanosoma brucei brucei, UniProt O76290)
Sequence (O76290 1-268): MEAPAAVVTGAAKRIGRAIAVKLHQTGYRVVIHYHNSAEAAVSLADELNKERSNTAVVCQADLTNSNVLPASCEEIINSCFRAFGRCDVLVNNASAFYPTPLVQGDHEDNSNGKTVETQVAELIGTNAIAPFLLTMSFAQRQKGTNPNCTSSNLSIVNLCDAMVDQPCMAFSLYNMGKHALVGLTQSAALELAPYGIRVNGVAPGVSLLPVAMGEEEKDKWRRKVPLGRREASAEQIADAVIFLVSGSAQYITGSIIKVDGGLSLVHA
Experiment: TbPTR1 inhibition, Cytochrome C coupled spectrophotometric assay
Type: biochemical
Details: recombinant protein; standard errors within ± 10%
ATTRIBUTE_MEASURED: IC50 (µM)

CHEMICAL_STRUCTURE: Cc1nc2c(-c3ncn[nH]3)cc(NC(=O)Cc3ccccc3)cn2c1C
ATTRIBUTE_MEASURED: IC50
DISPLAY_UNIT: µM
RESULT_NUMBER: 9.8
//
CHEMICAL_STRUCTURE: Cc1ccc2c(c1)-c1onc(C(=O)N3CCCC[C@H]3c3cccnc3)c1CO2
ATTRIBUTE_MEASURED: IC50
DISPLAY_UNIT: µM
RESULT_NUMBER: 9.8
